# Tgt: Carbonic anhydrase 2 (Homo sapiens)
# Assay Notes: Binding affinity to human recombinant CA2 expressed in Escherichia coli assessed as dissociation rate constant after 30 secs by surface plasmon resonance assay
Quantity Name: koff (s⁻¹)
Dear colleague, please return just the value in s⁻¹, with no unit written.

Example entries begin here.
- Smiles Input: "NS(=O)(=O)c1c(F)c(F)c(N2CCCCC2)c(F)c1F"
  Endpoint Value: 0.0093
- Smiles Input: "CCCS(=O)(=O)c1c(F)c(F)c(S(N)(=O)=O)c(F)c1NC1CCCCCCC1"
  Endpoint Value: 0.0087

input: Input CNc1c(F)c(S(N)(=O)=O)c(F)c(F)c1S(=O)(=O)CCc1ccccc1 , output reported koff.
output: 0.0082

input: Input COc1ccc(CNc2c(F)c(F)c(F)c(F)c2S(N)(=O)=O)cc1 , output reported koff.
output: 0.026

###

# Tgt: UniProtKB O43570
# Assay Notes: Binding affinity to human recombinant CA12 catalytic domain assessed as dissociation rate constant after 30 secs by surface plasmon resonance assay
Quantity Name: koff

- Smiles Input: "NS(=O)(=O)c1c(F)c(F)c(N2CCCCC2)c(F)c1F"
  Quantity Name: "koff"
  Endpoint Value: "0.041 s⁻¹"
- Smiles Input: "CCCSc1c(F)c(F)c(S(N)(=O)=O)c(NC2CCCCCCC2)c1F"
  Quantity Name: "koff"
  Endpoint Value: "0.05 s⁻¹"
- Smiles Input: "CC(C)(C)Nc1c(F)c(S(N)(=O)=O)c(F)c(F)c1S(=O)(=O)CCc1ccccc1"
  Quantity Name: "koff"
  Endpoint Value: "0.011 s⁻¹"

Turning to the following compound.
input: Input CNc1c(F)c(S(N)(=O)=O)c(F)c(F)c1S(=O)(=O)CCc1ccccc1 , output reported koff.
output: 0.14 s⁻¹

###

# Tgt: Carbonic anhydrase 12 (Homo sapiens)
# Sequence (O43570 whole entry, the tested form may be a part): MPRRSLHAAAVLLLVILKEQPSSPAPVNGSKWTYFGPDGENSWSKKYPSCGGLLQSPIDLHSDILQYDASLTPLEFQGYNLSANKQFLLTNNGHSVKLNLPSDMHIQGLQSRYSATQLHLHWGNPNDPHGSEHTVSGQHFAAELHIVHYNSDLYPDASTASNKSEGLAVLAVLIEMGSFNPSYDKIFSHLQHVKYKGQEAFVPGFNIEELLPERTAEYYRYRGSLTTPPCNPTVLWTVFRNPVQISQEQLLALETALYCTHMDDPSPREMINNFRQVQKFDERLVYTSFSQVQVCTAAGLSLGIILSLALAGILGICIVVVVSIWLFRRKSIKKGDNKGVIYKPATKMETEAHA
# Assay Notes: Binding affinity to human recombinant CA12 catalytic domain assessed as association rate constant after 30 secs by surface plasmon resonance assay
# Condition Summary: read-out: kon (M-1-s-1)
Quantity Name: kon (M⁻¹ s⁻¹)
Dear colleague, please return just the value in M⁻¹ s⁻¹, with no unit written.

Example entries begin here.
- Smiles Input: "CCCSc1c(F)c(F)c(S(N)(=O)=O)c(NC2CCCCCCC2)c1F"
  kon [M⁻¹ s⁻¹]: 130000
- Smiles Input: "NS(=O)(=O)c1c(F)c(F)c(N2CCCCC2)c(F)c1F"
  kon [M⁻¹ s⁻¹]: 880000
- Smiles Input: "CNc1c(F)c(S(N)(=O)=O)c(F)c(F)c1S(=O)(=O)CCc1ccccc1"
  kon [M⁻¹ s⁻¹]: "1.5e+06"

Turning to the following compound.
input: Recall the reported kon of CC(C)(C)Nc1c(F)c(S(N)(=O)=O)c(F)c(F)c1S(=O)(=O)CCc1ccccc1 on Carbonic anhydrase 12 (Homo sapiens) and write it down.
output: 180000

###

# Tgt: Carbonic anhydrase 7 (Homo sapiens)
# Sequence (P43166 whole entry): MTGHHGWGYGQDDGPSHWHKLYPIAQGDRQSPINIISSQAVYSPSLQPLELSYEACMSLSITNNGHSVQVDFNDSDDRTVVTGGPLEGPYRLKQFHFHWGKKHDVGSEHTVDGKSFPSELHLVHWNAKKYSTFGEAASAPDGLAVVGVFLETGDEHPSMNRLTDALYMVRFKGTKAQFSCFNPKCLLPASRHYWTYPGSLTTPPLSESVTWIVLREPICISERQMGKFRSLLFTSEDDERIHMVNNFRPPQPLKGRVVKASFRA
# Assay Notes: Binding affinity to human recombinant CA7 assessed as association rate constant after 30 secs by surface plasmon resonance assay
# Condition Summary: read-out: kon (M-1-s-1)
Quantity Name: kon (M⁻¹ s⁻¹)
Dear colleague, please return just the value in M⁻¹ s⁻¹, with no unit written.

Example entries begin here.
- Smiles Input: "CCCS(=O)(=O)c1c(F)c(F)c(S(N)(=O)=O)c(F)c1NC1CCCCCCC1"
  Endpoint Value: 49000
- Smiles Input: "CNc1c(F)c(S(N)(=O)=O)c(F)c(F)c1S(=O)(=O)CCc1ccccc1"
  Endpoint Value: 290000
- Smiles Input: "CCCSc1c(F)c(F)c(S(N)(=O)=O)c(NC2CCCCCCC2)c1F"
  Endpoint Value: 20000

input: Recall the reported kon of COc1ccc(CNc2c(F)c(F)c(F)c(F)c2S(N)(=O)=O)cc1 on Carbonic anhydrase 7 (Homo sapiens) and write it down.
output: 30000

input: Recall the reported kon of NS(=O)(=O)c1c(F)c(F)c(N2CCCCC2)c(F)c1F on Carbonic anhydrase 7 (Homo sapiens) and write it down.
output: 2.6e+06

FYI, the data here is from BindingDB's records for doi:10.1021/acs.jmedchem.5b01723.
